molecular target: MET kinase (Homo sapiens)
Sequence (P08581 1078-1345 limits assumed): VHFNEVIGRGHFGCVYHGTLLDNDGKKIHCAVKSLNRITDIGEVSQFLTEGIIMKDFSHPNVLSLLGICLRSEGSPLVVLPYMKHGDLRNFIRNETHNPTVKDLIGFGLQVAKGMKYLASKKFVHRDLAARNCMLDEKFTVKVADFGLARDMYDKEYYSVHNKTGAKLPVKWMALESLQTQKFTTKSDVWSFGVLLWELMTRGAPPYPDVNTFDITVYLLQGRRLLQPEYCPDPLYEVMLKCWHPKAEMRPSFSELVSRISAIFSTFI
pIC50: −log10 of the molar value.
valueType: pIC50

The compound listed as CCN1CCN(C(=O)c2cccc(-c3cnc4[nH]nc(-c5cc(F)ccc5OC)c4c3)c2)CC1 shows pIC50 equal to 5.00 to 6.00

* * *

molecular target: PDK1 kinase (Homo sapiens, UniProt O15530); construct: 6x Histidine tag (TEV-cleavable) (cleaved yes); made in house; host or cells: Sf9 insect cells; test: PDK1 luminescence-based enzyme assay (Kinase-Glo); format: biochemical; settings: read-out: PDK1 IC50
Sequence (O15530 whole entry): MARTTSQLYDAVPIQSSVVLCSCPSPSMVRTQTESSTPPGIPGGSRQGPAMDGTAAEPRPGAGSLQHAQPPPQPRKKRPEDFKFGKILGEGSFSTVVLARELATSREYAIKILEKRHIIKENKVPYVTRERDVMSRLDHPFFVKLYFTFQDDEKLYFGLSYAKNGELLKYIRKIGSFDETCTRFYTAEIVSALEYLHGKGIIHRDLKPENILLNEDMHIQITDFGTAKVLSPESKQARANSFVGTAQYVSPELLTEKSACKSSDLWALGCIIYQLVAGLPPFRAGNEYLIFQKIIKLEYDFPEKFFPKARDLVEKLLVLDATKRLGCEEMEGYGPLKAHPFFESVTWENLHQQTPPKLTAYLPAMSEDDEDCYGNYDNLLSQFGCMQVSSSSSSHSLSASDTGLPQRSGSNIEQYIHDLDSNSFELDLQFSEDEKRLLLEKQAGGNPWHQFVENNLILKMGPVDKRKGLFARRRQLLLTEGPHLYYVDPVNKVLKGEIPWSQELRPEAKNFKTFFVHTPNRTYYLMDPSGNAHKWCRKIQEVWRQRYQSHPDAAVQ
pIC50: −log10 of the molar value.
valueType: pIC50

Looking up COc1cc(-c2cnc3[nH]cc(-c4ccc(C)cc4)c3n2)ccc1O , I found its pIC50 recorded as 5.00 to 6.00
